EXPERIMENTAL SYSTEM: bombesin receptor of rat brain membranes (rat)
EXPERIMENT: 125I-Bombesin competition, rat brain membranes
Square brackets hold non-standard residues; d marks the D form. Ends that are not written are not given here. pGlu = O=C1CC[C@@H](C(=O)O)N1; Nle = CCCC[C@H](N)C(=O)O
Listing of entries alongside the reported % Inhibition.

>  <BINDER>
WAVCHL-NH2 (also: bridge at 4 via oxorhenium(V) N3S1 chelate, other end not in the chain) [metallopeptide 11-8]

>  <% Inhibition, %>
13

$$$$
>  <BINDER>
[dF]QW[dA]VCHLL-NH2 (bridge (positions not given here) via ReOCl3(PPh3)2; also: oxorhenium(V) N3S1 tetradentate complex at Cys 6) [metallopeptide 10-4]

>  <% Inhibition, %>
2

$$$$
>  <BINDER>
[dF]QWAVGHCL-NH2 (not fully specified (bridges); printed as D-Phe-Gln-Trp-Ala-Val-Gly-His-Cys-Leu-NH2; also: Re(V)=O chelate (N3S1) at Cys8) [metallopeptide 9-2]

>  <% Inhibition, %>
35

$$$$
>  <BINDER>
[pGlu]QRLGNQWAVCGHL[Nle]-NH2 (also: Re(V)=O N3S1 chelate at Cys11 (from ReOCl3(PPh3)2)) [metallopeptide 6-5]

>  <% Inhibition, %>
67

$$$$
>  <BINDER>
QWAVCHLL-NH2 (also: bridge at 5 via oxorhenium(V) N3S1 chelate, other end not in the chain) [metallopeptide 11-4]

>  <% Inhibition, %>
25

$$$$
>  <BINDER>
XQRLGNQWAVCHLX (Pyr 1; Nle 14; C-terminal amide; Re complexed at Cys 11) [metallopeptide 7-4]

>  <% Inhibition, %>
81

$$$$
>  <BINDER>
[dF]QWCAVGHLL-NH2 (not fully specified (bridges); printed as D-Phe-Gln-Trp-Cys-Ala-Val-Gly-His-Leu-Leu-NH2; also: oxorhenium(V) N3S1 tetradentate complex at Cys 4) [metallopeptide 8-7]

>  <% Inhibition, %>
8

$$$$
>  <BINDER>
[dF]QWAVCH-NH2 (bridge (positions not given here) via ReOCl3(PPh3)2; also: oxorhenium(V) N3S1 tetradentate complex at Cys 6) [metallopeptide 11-2]

>  <% Inhibition, %>
25

$$$$
>  <BINDER>
[dF]QWAVGHLC-NH2 (not fully specified (bridges); also: Re(V)=O chelate (N3S1) at Cys9) [metallopeptide 9-1]

>  <% Inhibition, %>
86

$$$$
